Task for the reader: assign each of the following compounds its reported MTD at 168 h.
- test.method.notes: Preventive effect against the growth of Ehrlich ascites tumor (Method A)
- Type: in vivo, mice (female ICR)
- test.conditions: mouse, in vivo, ip; maximum dose with 100% inhibition of Ehrlich ascites tumor without causing death; unit from dose column; read-out: MTD (Maximum Tolerated Dose)
Please give the number followed by its unit.

Item under review: COCCCN(C(=O)N(CCCl)N=O)C1O[C@H](CO)[C@@H](O)[C@H](O)[C@H]1O (stereo partly drawn) . Reported MTD at 168 h? 100 mg/kg/day

Again, but for COCCCN(C(=O)N(CCCl)N=O)C1OC[C@@H](O)[C@@H](O)[C@@H]1O (stereo partly drawn) 100 mg/kg/day

Again, but for COCC(C)N(C(=O)N(CCCl)N=O)C1O[C@H](CO)[C@H](O)[C@H](O)[C@H]1O (stereo partly drawn) 100 mg/kg/day

====

- System: Leukemia L-1210
- test.method.notes: Effect on the life span of mice implanted with leukemic cells of L-1210 (Method B)
- Format: in vivo, mice (male BDF1)
- test.conditions: Mus musculus, L1210, ip, 1440 h; 25 mg/kg/day i.p., once a day for 5 days; read-out: 60-day survivors (mice survived for 60 days/mice used) (converted)
observed.property: responders at 25 mg/kg

Item under review: COCC(C)N(C(=O)N(CCCl)N=O)C1O[C@H](CO)[C@H](O)[C@H](O)[C@H]1O (stereo partly drawn) . Reported responders at 25 mg/kg? 50%

Again, but for COCC(C)N(C(=O)N(CCCl)N=O)C1OC[C@H](O)[C@H](O)[C@H]1O (stereo partly drawn) 100%

Again, but for COCCN(C(=O)N(CCCl)N=O)C1OC[C@H](O)[C@H](O)[C@H]1O (stereo partly drawn) 100%

Again, but for COCCCN(C(=O)N(CCCl)N=O)C1O[C@H](CO)[C@@H](O)[C@H](O)[C@H]1O (stereo partly drawn) 25%

Again, but for COCCCN(C(=O)N(CCCl)N=O)C1OC[C@@H](O)[C@@H](O)[C@@H]1O (stereo partly drawn) 100%

Again, but for COCCCN(C(=O)N(CCCl)N=O)C1OC[C@H](O)[C@H](O)[C@H]1O (stereo partly drawn) 100%

Source: patent US4241053A
